Assay: In vitro fragmentation of DNA in the presence of excess calf thymus topoisomerase.
Recorded IC50 by entry
readout label: IC50 (nM)

>  <smiles repr>
CCc1c2c(nc3cnc(CN)cc13)-c1cc3c(c(=O)n1C2)COC(=O)[C@]3(O)CC

>  <measurement>
167

$$$$
>  <smiles repr>
CC[C@@]1(O)C(=O)OCc2c1cc1n(c2=O)Cc2c-1nc1c[n+]([O-])c(CNC(=O)OC(C)(C)C)cc1c2C

>  <measurement>
217

$$$$
>  <smiles repr>
CCc1c2c(nc3cnc(Br)cc13)-c1cc3c(c(=O)n1C2)COC(=O)[C@]3(O)CC

>  <measurement>
122

$$$$
>  <smiles repr>
CC[C@@]1(O)C(=O)OCc2c1cc1n(c2=O)Cc2c-1nc1cnc(C#CCN)cc1c2C

>  <measurement>
505

$$$$
>  <smiles repr>
CCc1c2c(nc3cnc(C#N)cc13)-c1cc3c(c(=O)n1C2)COC(=O)[C@]3(O)CC

>  <measurement>
268

$$$$
>  <smiles repr>
CCc1c2c(nc3cnc(CCCN(C)C)cc13)-c1cc3c(c(=O)n1C2)COC(=O)[C@]3(O)CC

>  <measurement>
1490

$$$$
>  <smiles repr>
CCc1c2c(nc3cnc(C(=O)NCCN(C)C)cc13)-c1cc3c(c(=O)n1C2)COC(=O)[C@]3(O)CC

>  <measurement>
9330

$$$$
>  <smiles repr>
CC[C@@]1(O)C(=O)OCc2c1cc1n(c2=O)Cc2c-1nc1cnc(C#CCN3CCOCC3)cc1c2C

>  <measurement>
1110

$$$$
>  <smiles repr>
CC[C@@]1(O)C(=O)OCc2c1cc1n(c2=O)Cc2cc3cc[n+]([O-])cc3nc2-1

>  <measurement>
1180

$$$$
>  <smiles repr>
CCc1c2c(nc3cnccc13)-c1cc3c(c(=O)n1C2)COC(=O)[C@]3(O)CC

>  <measurement>
336

$$$$
>  <smiles repr>
CC[C@@]1(O)C(=O)OCc2c1cc1n(c2=O)Cc2cc3ccncc3nc2-1

>  <measurement>
383

$$$$
>  <smiles repr>
CCOC(=O)c1cc2c(CC)c3c(nc2cn1)-c1cc2c(c(=O)n1C3)COC(=O)[C@]2(O)CC

>  <measurement>
949

$$$$
>  <smiles repr>
CCc1c2c(nc3cnc(C#CCN(C)C)cc13)-c1cc3c(c(=O)n1C2)COC(=O)[C@]3(O)CC

>  <measurement>
1330

$$$$
